tested on: M14; experiment: NCI tumour cell line growth inhibition, 48 h
Activity calls are given as the source filed them. Rule as the data show it: active = GI50 up to about 1.1 µM and inactive = higher.
Measured GI50 accompanies every entry in the list below.

Here are 5 molecules together with their reported answers.
molecule	GI50
CCOP(=O)(OCC)[C@H]1OC(C)(C)O[C@@H]1CO	> 100 µM (inactive)
NC1=NN(c2ccccc2)C(=O)C1C(=O)CCC(=O)Nc1cccc(Cl)c1 (centres undefined)	> 100 µM (inactive)
COC(=O)C1=C(C(=O)OC)C2C(C)=CC(C)=CN2C(C#N)=C(SC)S1 (centres undefined)	18 µM (inactive)
C=CCOC1OC(CS(=O)(=O)O)C(OC(C)=O)C(OC(C)=O)C1OC(C)=O (centres undefined)	> 100 µM (inactive)
COc1cc(C2C(Cl)C(=O)N2NC(=O)Cc2ccccc2)ccc1O (centres undefined)	> 100 µM (inactive)

Which measured GI50 value corresponds to COc1cccc(C2c3cc4c(cc3OC(N3CCCC3)C2c2ccccc2)OCO4)c1O (centres undefined) ? 11 µM (inactive)

Which measured GI50 value corresponds to CCN(CC)CSc1nc2ccccc2s1 ? > 100 µM (inactive)

Which measured GI50 value corresponds to Cc1ccc(C2SCc3nc4ccccc4n32)cc1 (centres undefined) ? 4.49 µM (inactive)

Which measured GI50 value corresponds to Cc1cn(S(=O)(=O)c2ccccc2)c2c(OCc3ccccc3)cc(NC(=O)c3cc4cc([N+](=O)[O-])ccc4s3)cc12 ? 37.8 µM (inactive)

###

system: SK-MEL-28; experiment: NCI tumour cell line growth inhibition, 48 h
Active and inactive are the calls of the source. Rule as the data show it: active = GI50 up to about 1.1 µM and inactive = higher.
Choose one outcome from this list and give only that: true (1) for active, false (0) for inactive

Hello, I am checking results. What call was entered for O=c1cc(-c2ccccc2)nc(/C=C(\O)c2ccncc2)n1-c1ccccc1 ? false (0)

Hello, I am checking results. What call was entered for COc1cccc(CC(=O)N2CCN(CCCc3ccccc3)CC2)c1 ? false (0)

Hello, I am checking results. What call was entered for COc1cc([C@@H]2c3cc4c(cc3[C@@H](Nc3ccccc3C(=O)c3ccccc3)[C@H]3COC(=O)[C@H]23)OCO4)cc(OC)c1OC ? true (1)

Hello, I am checking results. What call was entered for CCCCCCCCCCCCC(Br)C(C)=O (stereo not given) ? false (0)

Hello, I am checking results. What call was entered for O=C1NC(=O)c2ccc([N+](=O)[O-])c3cccc1c23 ? false (0)

Hello, I am checking results. What call was entered for O=C(C=P(c1ccccc1)(c1ccccc1)c1ccccc1)CC(=S)CC(=O)C=P(c1ccccc1)(c1ccccc1)c1ccccc1 ? false (0)

###

test system: Malme-3M; test: NCI tumour cell line growth inhibition, 48 h
Activity calls are given as the source filed them. Rule as the data show it: active = GI50 up to about 1.1 µM and inactive = higher.
Choose one outcome from this list and give only that: 1 = active, -1 = inactive

Worked cases, answers included:
molecule	test_target	answer_label
CCOC12OC3=C(CC1CC1=C(CCC1=O)O2)C(=O)CC3 (stereo not given)	Malme-3M	-1
CCN(CC)c1ccc2cc(-c3nnc(-c4ccccc4)[nH]3)c(=O)oc2c1	Malme-3M	-1
Cc1cc2nc(N3C(=O)/C(=C/c4ccc(Oc5ccccc5)cc4)N=C3c3ccccc3)sc2cc1C	Malme-3M	-1
O=C1c2ccccc2-n2c1nc1ccc([N+](=O)[O-])cc1c2=O	Malme-3M	-1

Hello, I am checking results. What call was entered for COc1cc2c(c(OC)c1OC)-c1ccc(SC)c(=O)cc1[C@@H](NCc1ccc(C#N)cc1)CC2 ? 1

Hello, I am checking results. What call was entered for O=C(COc1ccc(Cl)cc1)N1CCN(C(=O)COc2ccc(Cl)cc2)c2ccccc21 ? -1

Hello, I am checking results. What call was entered for CCc1c(Cc2cc(C)cc(C)c2)n2c(nc1=O)SCC2CBr (stereo not given) ? -1

Hello, I am checking results. What call was entered for C[N+](C)(C)CC(=O)N/N=C(\CCC(=O)NCCc1ccccc1)CC(=O)c1ccccc1 ? -1

Hello, I am checking results. What call was entered for O=P(O)(O)c1ccc(-c2ccc(I)cc2)cc1 ? -1

Hello, I am checking results. What call was entered for C[C@H]1C[C@H]2[C@@H]3CCC4=CC(=O)C=C[C@]4(C)C3=CC[C@]2(C)[C@@]1(O)C(=O)CO ? -1

Entry source: ChEMBL document CHEMBL1201862
